Entries annotated with measured binding score
# experimental target: PfCSP full length (Plasmodium falciparum (isolate NF54), UniProt P19597)
# Sequence (P19597 20-375): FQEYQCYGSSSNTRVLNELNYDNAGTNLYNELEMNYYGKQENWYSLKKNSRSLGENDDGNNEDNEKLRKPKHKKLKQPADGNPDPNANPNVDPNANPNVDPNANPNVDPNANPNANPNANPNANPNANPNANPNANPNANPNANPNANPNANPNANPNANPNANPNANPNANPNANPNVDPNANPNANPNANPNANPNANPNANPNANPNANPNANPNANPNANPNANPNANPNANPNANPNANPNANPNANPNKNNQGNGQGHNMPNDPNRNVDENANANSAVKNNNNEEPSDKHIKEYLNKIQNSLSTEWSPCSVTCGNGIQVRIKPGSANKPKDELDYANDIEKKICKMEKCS
# assay procedure: ELISA AUC
Keep it simple and answer with nothing but the number.

# binder, binding score
measured = [
    ("CL-459404 (antibody, V domains shown, peptides N-terminally acetylated and C-terminally amidated) VH: QVQLVASGGGVVQPGRSLRLSCAASGFTFSNYGMHWVRQAPGKGLEWVAIIWYDGSKKYYSDSVKGRFTISRDNSKNTLNLQMNSLRAEDTAVYYCARAYGSGSYSDDYYGMDVWGQGTTVTVSS VL: DIQMTQSPSTLSASVGDRVTITCRASQSISPWLAWFQQKPGKAPKLLIYKASNLESGVPSRFSGSGSGTEFTLTISSLQPDDFATYYCQQYYTYWTFGQGTKVEIK", 2.4),
    ("Ky311 (antibody, V domains shown, peptides N-terminally acetylated and C-terminally amidated) VH: QMHLVESGGGVVQPGRSLRLSCVASGFTFNNHGMHWVRQAPGKGLEWVAVIWHDGSNKFYADSVNGRFIVSRDNSKNTLYLHMNSLRAEDTAVYYCARDFFVSGSYNYFDPWGQGTLVTVSS VL: EIVLTQSPVTLSLSPGERATLSCRASQSVSNYLAWYQQKPGQAPRLLIYDAANRATGTPARFSGSGSGTDFTLTISSLEPEDFAVYFCQQRSKWFTFGPGTKLDIK", 2.22),
]

Now examine the next entry.
(Q) Consider the binder shown here: CL-513041 (antibody, V domains shown, peptides N-terminally acetylated and C-terminally amidated) VH: QEHLVESGGGVVQPGRSLRLSCAASGFTFSNSGMHWVRQAPGKGLEWVAVIWYDGSNKFYADSVRGRFTISRDNSNNTLYLQMNSLRAEDTALYYCARDRLFSGSWNWFDPWGQGTLVTVSS VL: EIVLTQSPATLSLSPGERATLSCRASQSVSTYLAWYQQKPGQAPRLLIYDASNRATGIPARFSGSGSGTDFTLTISSLEPEDFAVYYCQQRSNWFTFGGGTKVEIK What is its recorded binding score?
(A) 2.13
